The values you see were collected from ChEMBL document CHEMBL3885861.

- Species on record: Rattus norvegicus
- protocolDescription: Open TG-GATES - Regimen: Single
- Type: toxicity, organism-based, Sprague-Dawley
- Set-up: regimen Single, gender Male, age 6 weeks
- conditionSet: in vivo, po, 0 mg/kg, 3 h, tissue Plasma, route gavage, dose level Control
measureName: AST (IU/L)

compound: CC(=O)Oc1cc(C(C)C)c(OCCN(C)C)cc1C
assayResult: 73.6

compound: Nc1nc(N)c2nc(-c3ccccc3)c(N)nc2n1
assayResult: 76.6

compound: CC(C)C(=O)Nc1ccc([N+](=O)[O-])c(C(F)(F)F)c1 [FLUTAMIDE]
assayResult: 69.6

compound: O=C(N[C@H](CO)[C@H](O)c1ccc([N+](=O)[O-])cc1)C(Cl)Cl
assayResult: 73.8

compound: C#C[C@]1(O)CC[C@H]2[C@@H]3CCc4cc(O)ccc4[C@H]3CC[C@@]21C
assayResult: 77.6

compound: CCN1CCCC1CNC(=O)c1cc(S(N)(=O)=O)ccc1OC (stereo unspecified) [SULPIRIDE]
assayResult: 92.6
